molecules and their reported IC50
target: SMYD3 (Homo sapiens (Human), UniProt Q9H7B4); test: SMYD3 cell assay (Trimethyl-MEKK2 In-Cell Western in 293T/17 cells); format: cell-based; details: average of n = 1 to n = 50; read-out: SMYD3 Cell IC50
Sequence (Q9H7B4 whole entry): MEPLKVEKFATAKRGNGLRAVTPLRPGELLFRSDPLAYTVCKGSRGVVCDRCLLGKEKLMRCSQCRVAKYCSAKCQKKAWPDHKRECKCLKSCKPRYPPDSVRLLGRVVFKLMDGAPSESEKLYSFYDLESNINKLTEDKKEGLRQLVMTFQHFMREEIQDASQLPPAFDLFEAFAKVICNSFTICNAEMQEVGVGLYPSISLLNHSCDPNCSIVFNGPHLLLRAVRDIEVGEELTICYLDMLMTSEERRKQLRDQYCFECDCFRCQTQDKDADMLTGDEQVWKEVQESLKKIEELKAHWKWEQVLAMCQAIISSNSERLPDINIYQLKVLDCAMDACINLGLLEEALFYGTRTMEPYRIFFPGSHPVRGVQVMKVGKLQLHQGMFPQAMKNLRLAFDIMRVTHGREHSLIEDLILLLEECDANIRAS
Just the number in nM, nothing appended.

[[record]]
molecule = "CC1CN(S(=O)(=O)N2[C@@H]3CC[C@H]2C[C@@H](NC(=O)c2cc(C4CC4)on2)C3)CC(C)N1C (stereo partly shown)"
measuredproperty = "IC50"
observed = 1240

[[record]]
molecule = "O=C(N[C@H]1C[C@H]2CC[C@@H](C1)N2S(=O)(=O)CCc1ccncc1)c1cc(C2CC2)on1"
measuredproperty = "IC50"
observed = 2400

[[record]]
molecule = "O=C(N[C@H]1C[C@H]2CC[C@@H](C1)N2S(=O)(=O)N1CC2COCC(C1)N2)c1cc(C2CC2)on1"
measuredproperty = "IC50"
observed = 1650


Reported IC50 of C[C@@H]1CN(C(=O)c2ccc(C(C)(C)N)cc2)[C@H](C)C[C@@H]1NC(=O)c1cc(C2CC2)on1 : 634
